Values compiled from the supplement of paper PMC10065799.

molecular target: EPHB1 (UniProt P54762); assay: phosphorylation enrichment, bacterial display (enrichment ratio); higher = better substrate or ligand; peptides without Tyr show the background;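 further: 11-residue human phosphosite peptides and single-mutation variants displayed on the E. coli surface, counted by deep sequencing, each peptide's frequency after selection divided by its frequency in the unselected input library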;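 further: frequency after pTyr selection over input frequency; kinase dosed for 20-30% of maximal phosphorylation in three min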
Sequence (P54762 whole entry, looked up): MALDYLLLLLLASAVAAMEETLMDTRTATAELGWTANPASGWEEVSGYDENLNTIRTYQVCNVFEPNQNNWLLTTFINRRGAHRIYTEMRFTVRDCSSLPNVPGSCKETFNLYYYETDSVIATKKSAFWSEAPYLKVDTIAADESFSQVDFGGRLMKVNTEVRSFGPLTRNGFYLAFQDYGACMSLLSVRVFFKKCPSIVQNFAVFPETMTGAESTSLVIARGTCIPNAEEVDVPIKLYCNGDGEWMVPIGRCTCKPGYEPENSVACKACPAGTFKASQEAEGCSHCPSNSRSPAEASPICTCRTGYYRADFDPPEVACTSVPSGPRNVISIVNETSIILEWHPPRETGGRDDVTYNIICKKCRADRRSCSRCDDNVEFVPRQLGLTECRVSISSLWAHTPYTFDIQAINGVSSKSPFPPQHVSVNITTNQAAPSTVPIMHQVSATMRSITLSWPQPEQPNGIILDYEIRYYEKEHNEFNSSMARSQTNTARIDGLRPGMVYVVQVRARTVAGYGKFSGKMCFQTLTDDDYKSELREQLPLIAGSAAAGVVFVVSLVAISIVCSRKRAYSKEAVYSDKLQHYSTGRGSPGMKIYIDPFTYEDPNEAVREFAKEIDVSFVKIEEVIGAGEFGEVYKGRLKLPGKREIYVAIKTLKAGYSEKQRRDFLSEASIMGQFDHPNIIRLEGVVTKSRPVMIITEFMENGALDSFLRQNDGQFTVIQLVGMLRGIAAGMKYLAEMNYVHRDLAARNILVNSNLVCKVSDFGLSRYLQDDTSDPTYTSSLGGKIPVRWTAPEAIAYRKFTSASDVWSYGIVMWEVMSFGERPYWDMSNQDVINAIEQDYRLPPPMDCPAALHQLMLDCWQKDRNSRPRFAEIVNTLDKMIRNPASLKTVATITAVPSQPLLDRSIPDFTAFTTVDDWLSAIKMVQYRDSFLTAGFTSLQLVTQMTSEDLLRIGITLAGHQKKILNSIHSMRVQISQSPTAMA
Measured phosphorylation enrichment, listed per entry.

sequence-data: VIDGKYAFKPK [GTF2E2_Y137]
phosphorylation enrichment: 0.264
--
sequence-data: TFQFKYPEGSS [TGM4_Y440_E437Q_YF]
phosphorylation enrichment: 0.496
--
sequence-data: KRLKDYLTVLQ [USP25_Y425]
phosphorylation enrichment: 0.422
--
sequence-data: SSREGYVRHHN [FAM83B_Y433_S435R]
phosphorylation enrichment: 0.309
--
sequence-data: QRIFQYIRSRF [DYRK1B_Y273_Q275R_YF]
phosphorylation enrichment: 0.817
--
sequence-data: NRNVRYLTLDI [AKR1C2_Y305]
phosphorylation enrichment: 0.392
--
sequence-data: GRQWNYVASMS [KLHL4_Y552]
phosphorylation enrichment: 0.508

====

biological target: Fes (UniProt P07332); test: phosphorylation enrichment, bacterial display (enrichment ratio); higher = better substrate or ligand; peptides without Tyr show the background
Sequence (P07332 whole entry, looked up): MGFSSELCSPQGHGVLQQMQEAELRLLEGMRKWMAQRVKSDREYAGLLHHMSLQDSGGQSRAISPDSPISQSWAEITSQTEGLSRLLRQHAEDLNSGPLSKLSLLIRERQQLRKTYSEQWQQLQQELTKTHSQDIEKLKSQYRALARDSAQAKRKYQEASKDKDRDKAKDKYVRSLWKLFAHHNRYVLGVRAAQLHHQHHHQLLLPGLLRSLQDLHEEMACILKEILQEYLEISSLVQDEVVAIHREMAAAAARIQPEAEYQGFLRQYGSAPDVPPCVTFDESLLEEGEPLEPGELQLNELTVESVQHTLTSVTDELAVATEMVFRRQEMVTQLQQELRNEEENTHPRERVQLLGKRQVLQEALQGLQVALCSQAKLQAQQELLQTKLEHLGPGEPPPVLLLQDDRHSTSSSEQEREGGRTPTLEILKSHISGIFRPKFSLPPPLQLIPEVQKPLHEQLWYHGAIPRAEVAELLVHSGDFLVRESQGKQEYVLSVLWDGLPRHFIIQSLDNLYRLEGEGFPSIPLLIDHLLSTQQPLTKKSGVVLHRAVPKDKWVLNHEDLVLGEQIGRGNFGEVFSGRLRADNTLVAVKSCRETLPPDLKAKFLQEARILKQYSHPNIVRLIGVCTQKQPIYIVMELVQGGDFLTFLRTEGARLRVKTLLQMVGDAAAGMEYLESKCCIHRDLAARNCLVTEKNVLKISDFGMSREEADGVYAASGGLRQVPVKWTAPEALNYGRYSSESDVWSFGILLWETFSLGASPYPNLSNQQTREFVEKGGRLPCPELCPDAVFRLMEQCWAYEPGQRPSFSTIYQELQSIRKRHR
# if value of phosphorylation enrichment reaches 1, tag rule met; if it stays below, tag rule not met

sequence-data: RLLVFYPWTQR [HBB_Y36_V35F]
system-name: Fes (UniProt P07332)
assigned-label: rule met

sequence-data: TLEKFYFAFPG [SLC1A1_Y51]
system-name: Fes (UniProt P07332)
assigned-label: rule met

sequence-data: RSAGKYDVYFI [MECP2_Y120_L124F]
system-name: Fes (UniProt P07332)
assigned-label: rule met

sequence-data: QRIFQYIRSRF [DYRK1B_Y273_Q275R_YF]
system-name: Fes (UniProt P07332)
assigned-label: rule met

sequence-data: MSNSAYVKREV [SCN1A_Y1694_F1692S]
system-name: Fes (UniProt P07332)
assigned-label: rule not met

sequence-data: TAALWYIFLHT [ENG_Y612_S615L_YF]
system-name: Fes (UniProt P07332)
assigned-label: rule met

sequence-data: RHPYFFAPELL [ALB_Y174_Y174F]
system-name: Fes (UniProt P07332)
assigned-label: rule met

sequence-data: RHPFFYAPELL [ALB_Y174_YF]
system-name: Fes (UniProt P07332)
assigned-label: rule met

sequence-data: GRVFVYHLSEQ [ITGAE_Y551_R552H_YF]
system-name: Fes (UniProt P07332)
assigned-label: rule not met

sequence-data: GCRSKSVGLWG [KCNQ1_Y184_Y184S]
system-name: Fes (UniProt P07332)
assigned-label: rule not met

sequence-data: DCPASYKKKSM [PDGFRA_Y768_R764C]
system-name: Fes (UniProt P07332)
assigned-label: rule not met

sequence-data: ELCSEYRKSRK [SPINK5_Y440]
system-name: Fes (UniProt P07332)
assigned-label: rule not met

sequence-data: RQLEIYRASRP [ERCC4_Y594]
system-name: Fes (UniProt P07332)
assigned-label: rule not met

sequence-data: NDFGNYNQQPS [HNRNPA2B1_Y306]
system-name: Fes (UniProt P07332)
assigned-label: rule not met

sequence-data: KLADMYGGGED [CDH1_Y876]
system-name: Fes (UniProt P07332)
assigned-label: rule not met

sequence-data: PFSSPYENSLI [EPOR_Y489_N487S_YF]
system-name: Fes (UniProt P07332)
assigned-label: rule met

sequence-data: QDRTYYERVRT [SPEN_Y633_S635R]
system-name: Fes (UniProt P07332)
assigned-label: rule not met

sequence-data: EVRAQYEEIAQ [KRT76_Y361]
system-name: Fes (UniProt P07332)
assigned-label: rule met

sequence-data: PLDGEYFSLQI [TP53_Y327_T329S]
system-name: Fes (UniProt P07332)
assigned-label: rule met

sequence-data: NDENIYKGLPD [VAV3_Y141_D139N]
system-name: Fes (UniProt P07332)
assigned-label: rule met

sequence-data: EFAAGYNVKFD [GPX4_Y123]
system-name: Fes (UniProt P07332)
assigned-label: rule not met

sequence-data: VIDGKYAFKPK [GTF2E2_Y137]
system-name: Fes (UniProt P07332)
assigned-label: rule not met

sequence-data: SVMAEYGLYAA [VSX2_Y219_G223A]
system-name: Fes (UniProt P07332)
assigned-label: rule not met

sequence-data: TEQDPYNNIDR [MMUT_Y364_V368D]
system-name: Fes (UniProt P07332)
assigned-label: rule met

sequence-data: ANRNVYEVEPT [MEGF10_Y1075]
system-name: Fes (UniProt P07332)
assigned-label: rule not met

sequence-data: CPFNLYAEQLS [HGD_Y40_YF]
system-name: Fes (UniProt P07332)
assigned-label: rule met

sequence-data: MMVGAYSTLEG [ECPAS_Y470]
system-name: Fes (UniProt P07332)
assigned-label: rule not met

sequence-data: ADEDIYGVLPA [LYNtide_2014]
system-name: Fes (UniProt P07332)
assigned-label: rule met

sequence-data: FATAGYGSLEA [EPHA10_Y959_A956T]
system-name: Fes (UniProt P07332)
assigned-label: rule not met

sequence-data: FEPWVYSLSFE [PRKDC_Y647_F649L_YF]
system-name: Fes (UniProt P07332)
assigned-label: rule met

sequence-data: GVTLLCFGRFN [ADGRD1_Y85_Y85C_YF]
system-name: Fes (UniProt P07332)
assigned-label: rule met

sequence-data: RICRRYCQVLN [IQCF1_Y144_R141C]
system-name: Fes (UniProt P07332)
assigned-label: rule met

sequence-data: VGTKRYVAPEV [ACVRL1_Y375_M376V]
system-name: Fes (UniProt P07332)
assigned-label: rule not met

sequence-data: KLSCSYSHLSA [C4BPA_Y470_W473L]
system-name: Fes (UniProt P07332)
assigned-label: rule met

sequence-data: NYAKMYCNPDA [KNL1_Y489]
system-name: Fes (UniProt P07332)
assigned-label: rule met

sequence-data: TIMTDYNPNFC [ALK_Y1092_YF]
system-name: Fes (UniProt P07332)
assigned-label: rule not met

sequence-data: LEFAKYGSLRG [RET_Y809_V804L_YF]
system-name: Fes (UniProt P07332)
assigned-label: rule not met

sequence-data: ETEMLYGSARR [PRC1_Y464_P468R]
system-name: Fes (UniProt P07332)
assigned-label: rule not met

sequence-data: GYKVRYATGSI [FGFR1_Y210_W213G]
system-name: Fes (UniProt P07332)
assigned-label: rule not met

sequence-data: IFGASYVPFAA [RBM47_Y541_YF]
system-name: Fes (UniProt P07332)
assigned-label: rule not met

sequence-data: KLADIYQAELR [GFAP_Y116_V115I]
system-name: Fes (UniProt P07332)
assigned-label: rule not met

sequence-data: MEFLPYGSLRD [JAK2_Y934_YF]
system-name: Fes (UniProt P07332)
assigned-label: rule met

sequence-data: RISPEYKQNEI [GJB1_Y243_L239I]
system-name: Fes (UniProt P07332)
assigned-label: rule met

sequence-data: ATARPYRPFII [LRP5_Y1528_YF]
system-name: Fes (UniProt P07332)
assigned-label: rule not met

sequence-data: QERPEYWDQET [HLA-A_Y83_G80R]
system-name: Fes (UniProt P07332)
assigned-label: rule met

sequence-data: VMAALYGRLFE [BTD_Y536_T532M_YF]
system-name: Fes (UniProt P07332)
assigned-label: rule met

sequence-data: KASVDYIRKLQ [MITF_Y360]
system-name: Fes (UniProt P07332)
assigned-label: rule not met

sequence-data: WAMPAYNRSKL [WWOX_Y293_L291P]
system-name: Fes (UniProt P07332)
assigned-label: rule not met

sequence-data: KTTSGYAGGLS [KRT8_Y419]
system-name: Fes (UniProt P07332)
assigned-label: rule not met

sequence-data: EDKFMYLEFPQ [PTEN_Y240_F241L]
system-name: Fes (UniProt P07332)
assigned-label: rule met

sequence-data: HAVYVYDICHV [TWNK_Y508]
system-name: Fes (UniProt P07332)
assigned-label: rule met

sequence-data: GLDGSYLLRFS [SH2D1A_Y29_D33Y_YF]
system-name: Fes (UniProt P07332)
assigned-label: rule not met

sequence-data: ADRARYSAFGG [RBM4_Y361]
system-name: Fes (UniProt P07332)
assigned-label: rule not met
